List of inhibition values.
target under test: HIPK3 (human) (UniProt Q9H422)
Sequence (Q9H422 whole entry, looked up): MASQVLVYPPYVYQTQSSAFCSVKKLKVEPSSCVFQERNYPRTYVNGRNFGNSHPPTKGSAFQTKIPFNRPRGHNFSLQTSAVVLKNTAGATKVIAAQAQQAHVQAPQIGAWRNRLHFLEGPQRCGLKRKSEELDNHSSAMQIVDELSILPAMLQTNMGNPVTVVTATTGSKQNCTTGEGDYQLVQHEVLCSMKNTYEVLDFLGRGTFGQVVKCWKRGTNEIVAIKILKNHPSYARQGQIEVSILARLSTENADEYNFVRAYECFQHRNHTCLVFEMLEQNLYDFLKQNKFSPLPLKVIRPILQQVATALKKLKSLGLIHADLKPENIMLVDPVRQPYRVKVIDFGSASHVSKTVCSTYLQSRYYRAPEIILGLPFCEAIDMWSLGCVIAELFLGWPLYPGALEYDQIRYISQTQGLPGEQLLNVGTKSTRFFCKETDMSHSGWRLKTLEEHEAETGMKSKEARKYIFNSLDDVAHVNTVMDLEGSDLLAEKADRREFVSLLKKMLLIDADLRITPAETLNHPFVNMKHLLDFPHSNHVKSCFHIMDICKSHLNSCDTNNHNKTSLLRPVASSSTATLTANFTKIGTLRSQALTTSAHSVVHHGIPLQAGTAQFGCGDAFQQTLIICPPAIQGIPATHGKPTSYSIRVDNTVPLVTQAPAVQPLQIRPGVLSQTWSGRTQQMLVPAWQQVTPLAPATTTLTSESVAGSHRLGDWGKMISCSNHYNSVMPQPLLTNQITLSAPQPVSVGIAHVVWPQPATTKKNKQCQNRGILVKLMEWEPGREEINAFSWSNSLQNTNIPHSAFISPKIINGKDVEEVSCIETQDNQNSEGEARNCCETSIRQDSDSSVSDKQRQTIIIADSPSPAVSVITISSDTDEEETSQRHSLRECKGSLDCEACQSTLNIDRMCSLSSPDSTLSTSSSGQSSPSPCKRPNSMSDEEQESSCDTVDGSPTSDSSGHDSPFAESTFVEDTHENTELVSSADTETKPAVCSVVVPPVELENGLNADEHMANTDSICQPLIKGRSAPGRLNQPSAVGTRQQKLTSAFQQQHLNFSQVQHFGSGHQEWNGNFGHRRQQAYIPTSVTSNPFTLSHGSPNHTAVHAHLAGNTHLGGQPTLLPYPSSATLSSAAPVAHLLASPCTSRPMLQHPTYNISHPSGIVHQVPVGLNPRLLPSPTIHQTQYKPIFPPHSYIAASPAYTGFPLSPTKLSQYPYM
assay comment: radiometric filter-binding kinase assay
conditions used: compound 100.0 µM; ATP 20 µM
Enter your answer as a number in %; do not include the unit.

The following compounds have reported results that may help.
- compound: "O=c1cc(-c2ccccc2F)nc2[nH]ccn12"
  unit descriptor: "%"
  inhibition: 0
- compound: "O=c1c(NC(=S)NCc2ccccc2)cnc2[nH]ccn12"
  unit descriptor: "%"
  inhibition: 0
- compound: "CC(C)(C)Nc1c(C2CC2)nc2[nH]cnn12"
  unit descriptor: "%"
  inhibition: 0

**Q:** Tell us which inhibition value is on record for `O=C(Nc1cnc2[nH]ccn2c1=O)c1ccccc1`
**A:** 0

**Q:** Quote inhibition reported for CC1CN(c2nc3ccccn3c(=O)c2N)CC(C)O1 (stereo not given) please.
**A:** 0

**Q:** Annotate the compound `CC(=O)Nc1nc2cnc(-c3c(C)cccc3C)cn2n1` with its measured inhibition.
**A:** 0

**Q:** State its inhibition for this compound: `COc1ccc(-c2cc3c(=O)[nH]cnc3s2)cc1OC`
**A:** 0

**Q:** Indicate its recorded inhibition; the compound in question is `O=C(c1cccc(-c2cc3c(=O)[nH]cnc3s2)c1)N1CCOCC1`
**A:** 0

**Q:** Identify inhibition associated with the compound `Cc1cccc(C)c1-c1cn2nc(N)nc2cn1`
**A:** 7

**Q:** Give the value of inhibition reported for the following: `O=C(Nc1cnc2[nH]cnn2c1=O)c1ccccc1`
**A:** 0

**Q:** Give inhibition for `Nc1cnc2c(-c3c(F)cccc3F)cccn2c1=O`
**A:** 23

**Q:** Tell me measured inhibition for `CC(=O)Nc1nc2cnc(-c3ccccc3)cn2n1` please.
**A:** 0

**Q:** Supply reported inhibition belonging to this compound: `COc1ccc(NC(=S)Nc2cnc3[nH]cnn3c2=O)cn1`
**A:** 0

**Q:** Return value of inhibition for input `Nc1nc2cnc(-c3ccccc3)cn2n1` , no commentary.
**A:** 16

**Q:** Return value of inhibition for input `CC(C)(C)Nc1c(COCc2ccccc2)nc2[nH]cnn12` , no commentary.
**A:** 1
